Each recorded value in this set is attributed to patent US20230286970A1.

Molecular target: recombinant human HDAC6 (Homo sapiens (Human), UniProt Q9UBN7)
Sequence (Q9UBN7 whole entry): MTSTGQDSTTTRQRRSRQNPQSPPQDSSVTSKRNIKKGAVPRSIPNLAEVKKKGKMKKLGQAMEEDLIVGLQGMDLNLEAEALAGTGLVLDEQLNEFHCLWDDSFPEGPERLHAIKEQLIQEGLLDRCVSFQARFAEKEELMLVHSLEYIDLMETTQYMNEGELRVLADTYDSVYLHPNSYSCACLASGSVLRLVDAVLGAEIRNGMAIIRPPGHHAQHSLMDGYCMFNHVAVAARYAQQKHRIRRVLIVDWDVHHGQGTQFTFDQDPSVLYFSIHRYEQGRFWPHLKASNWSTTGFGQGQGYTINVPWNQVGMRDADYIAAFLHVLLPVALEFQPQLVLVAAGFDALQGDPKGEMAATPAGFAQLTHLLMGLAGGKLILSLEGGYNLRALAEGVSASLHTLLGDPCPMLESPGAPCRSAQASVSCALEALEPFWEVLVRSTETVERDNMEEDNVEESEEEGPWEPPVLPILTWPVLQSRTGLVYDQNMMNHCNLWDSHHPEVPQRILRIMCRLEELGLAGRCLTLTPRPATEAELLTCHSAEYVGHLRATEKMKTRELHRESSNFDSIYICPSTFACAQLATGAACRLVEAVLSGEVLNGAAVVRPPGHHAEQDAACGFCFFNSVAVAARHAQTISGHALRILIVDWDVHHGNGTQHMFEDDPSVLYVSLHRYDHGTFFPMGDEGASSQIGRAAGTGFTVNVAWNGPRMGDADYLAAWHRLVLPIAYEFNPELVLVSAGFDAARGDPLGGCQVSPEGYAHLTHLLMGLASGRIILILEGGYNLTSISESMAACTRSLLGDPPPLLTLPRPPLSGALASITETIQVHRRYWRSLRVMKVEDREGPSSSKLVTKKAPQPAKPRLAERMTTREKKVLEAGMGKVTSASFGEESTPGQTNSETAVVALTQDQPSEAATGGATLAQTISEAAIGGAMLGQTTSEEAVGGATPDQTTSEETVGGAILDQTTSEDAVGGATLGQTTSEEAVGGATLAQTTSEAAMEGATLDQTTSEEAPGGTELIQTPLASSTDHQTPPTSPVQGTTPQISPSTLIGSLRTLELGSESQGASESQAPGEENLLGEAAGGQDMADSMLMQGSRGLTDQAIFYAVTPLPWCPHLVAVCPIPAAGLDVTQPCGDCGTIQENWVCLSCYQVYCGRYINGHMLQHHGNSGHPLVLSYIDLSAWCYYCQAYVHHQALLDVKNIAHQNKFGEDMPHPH
Assay: Enzymatic screening, HDAC6 inhibition (fluorogenic FdL_G substrate)
Method: For each test compound, 100× concentrated DMSO solutions at 8 doses were prepared and then diluted in assay buffer (25 mM Tris-HCl, pH 8, 130 mM NaCl, 0.05% Tween-20, 10% Glycerol) to obtain 5× concentrated solutions in relation to the final concentrations (typical final concentration range—6.4-200000 nM or 0.18-50000 nM, final DMSO content—1%). […]
pIC50: −log10 of the molar value.
Classify by measured pIC50: t if it is equal to or exceeds 7, f if it is smaller.

structure	discrete_label
Nc1nc2cc(-c3cnn(Cc4ccc(-c5nnc(C(F)F)o5)cn4)c3)ccc2[nH]1	t
O=C(c1cccc(-c2nnn(Cc3ccc(-c4nnc(C(F)F)o4)cc3)n2)c1)N1CCOCC1	t
Fc1cc(-c2nnc(C(F)F)o2)ccc1Cn1nnc(-c2nccc3ccccc23)n1	f
FC(F)c1nnc(-c2ccc(Cn3nnc(-c4cccc(-c5ccccc5)c4)n3)cc2)o1	f
Nc1cnc2ccc(-c3nnn(Cc4cc(F)c(-c5nnc(C(F)F)o5)cc4F)n3)cc2c1	t
CN(C)C(=O)Nc1cc(-c2nnn(Cc3ccc(-c4nnc(C(F)F)o4)cc3)n2)ccc1O	t
O=C(Nc1cccc(-c2cn(Cc3ccc(-c4nnc(C(F)F)o4)cc3F)nn2)c1)N1CCOCC1	t
O=C(c1ccc(-c2nnn(Cc3ccc(-c4nnc(C(F)F)o4)cc3)n2)cc1)N1CCOCC1	f
CN(C)c1ccc(-c2cn(Cc3ccc(-c4nnc(C(F)F)o4)cc3)nn2)cc1	f
FC(F)c1nnc(-c2ccc(Cc3nnc(-c4ccccc4)s3)cc2)o1	f
FC(F)c1nnc(-c2ccc(Cn3nnc(-c4cccc(-c5cnn6c5CNCC6)c4)n3)cc2)o1	t
[2H]C([2H])(c1ccc(-c2nnc(C(F)F)o2)cn1)n1cc(-c2cccc(NC(=O)N3CCOCC3)c2)nn1	t
